Just for reference, ChEMBL document CHEMBL1134944 is where these values come from.

Examples of molecules with documented inhibition follow.
Target: cGMP-specific 3',5'-cyclic phosphodiesterase (Homo sapiens)
Test: Percentage inhibition against human phosphodiesterase type 5 isolated from corpus cavernosum at 100 nM.
Provide only the numeric value, understood in %.

[[record]]
input_smiles = "CC(C)Cn1c(=O)n(C)c(=O)c2c1nc(NC1CCCCC1)n2Cc1ccccc1"
tested_target = "cGMP-specific 3',5'-cyclic phosphodiesterase (Homo sapiens)"
unit_text = "%"
value_observed = 52

[[record]]
input_smiles = "CC(C)[C@H](CO)Nc1nc2c(c(=O)n(C)c(=O)n2C)n1Cc1ccccc1"
tested_target = "cGMP-specific 3',5'-cyclic phosphodiesterase (Homo sapiens)"
unit_text = "%"
value_observed = 11

[[record]]
input_smiles = "CCn1c(=O)c2c(nc(NC3CCCCC3)n2Cc2ccccc2)n(CC)c1=O"
tested_target = "cGMP-specific 3',5'-cyclic phosphodiesterase (Homo sapiens)"
unit_text = "%"
value_observed = 93


(Q) Provide the reported inhibition (system: cGMP-specific 3',5'-cyclic phosphodiesterase (Homo sapiens)) for `Cn1c(=O)c2c(nc(NC3CCCCC3)n2Cc2ccccc2)n(C)c1=O`
(A) 54

====

Consider the following compounds and their measured pIC50 readings.
Target: cGMP-specific 3',5'-cyclic phosphodiesterase (Homo sapiens)
Assay: Concentration required to inhibit phosphodiesterase type 5 (PDE5) isolated from corpus cavernosum by 50% was determined
On this scale, pIC50 is minus log10 of a concentration expressed in M (mol/L).

These solved cases illustrate the format of a correct answer.
[[record]]
input_smiles = "CCn1c(=O)c2c(nc(NC3CCCCC3)n2Cc2ccc(OC)c(Cl)c2)n(CC)c1=O"
measured_attribute = "pIC50"
value_observed = 9.24

[[record]]
input_smiles = "CCn1c(=O)c2c(nc(NC3CCCC3)n2Cc2ccc(OC)c(F)c2)n(CC)c1=O"
measured_attribute = "pIC50"
value_observed = 9.16

[[record]]
input_smiles = "CCn1c(=O)c2c(nc(NC3CCCC3)n2Cc2ccc(OC)cc2)n(CC)c1=O"
measured_attribute = "pIC50"
value_observed = 8.68


(Q) Given `CCn1c(=O)c2c(nc(NC3CCCCC3)n2Cc2cccc(O)c2)n(CC)c1=O` , report its pIC50 on cGMP-specific 3',5'-cyclic phosphodiesterase (Homo sapiens).
(A) 8.92

(Q) Send back cGMP-specific 3',5'-cyclic phosphodiesterase (Homo sapiens) pIC50 of `CCn1c(=O)c2c(nc(NC3CCCCC3)n2Cc2ccccc2)n(CC)c1=O` only.
(A) 7.92

(Q) State measured pIC50 of the compound `CCn1c(=O)c2c(nc(NC3CCCCC3)n2Cc2ccc(OC)c(C)c2)n(CC)c1=O` with cGMP-specific 3',5'-cyclic phosphodiesterase (Homo sapiens).
(A) 7.72

====

Molecular target: cGMP-specific 3',5'-cyclic phosphodiesterase (Homo sapiens, UniProt O76074)
Experiment: Concentration required to inhibit phosphodiesterase type 5 (PDE5) isolated from corpus cavernosum by 50% was determined
measured_attribute: pIC50
Hey, just a heads up that pIC50 is the negative log base 10 of the concentration in molar.

Take a look at these entries with their results.
[[record]]
input_smiles = "CCn1c(=O)c2c(nc(NC3CCCCC3)n2Cc2ccc3c(c2)OCO3)n(CC)c1=O"
value_observed = 8.43

[[record]]
input_smiles = "CCn1c(=O)c2c(nc(NC3CCCCC3)n2Cc2ccc(O)c(F)c2)n(CC)c1=O"
value_observed = 9.48

[[record]]
input_smiles = "CCn1c(=O)c2c(nc(NC3CCCC3)n2Cc2ccc(O)c(F)c2)n(CC)c1=O"
value_observed = 9.09


Turning now to a further molecule:
(Q) Return reported pIC50. Input molecule: `CCn1c(=O)c2c(nc(NC3CCCCC3)n2Cc2ccc(O)c(Cl)c2)n(CC)c1=O`
(A) 8.70
